target: Cbl-b (Homo sapiens, UniProt Q13191); construct: Cbl-b-HiBit KI Jurkat Cells were purchased from Promega; host or cells: Cbl-b-HiBiT knock-in Jurkat cells; assay: Cbl-b Degradation Method A (FACS, anti-Cbl-b antibody staining); type: cell-based; conditions: Cbl-b-HiBit KI Jurkat Cells, incubated at least 20 hours; half maximal degradation; read-out: Cbl-b Degredation Method A IC50
Sequence (Q13191 whole entry): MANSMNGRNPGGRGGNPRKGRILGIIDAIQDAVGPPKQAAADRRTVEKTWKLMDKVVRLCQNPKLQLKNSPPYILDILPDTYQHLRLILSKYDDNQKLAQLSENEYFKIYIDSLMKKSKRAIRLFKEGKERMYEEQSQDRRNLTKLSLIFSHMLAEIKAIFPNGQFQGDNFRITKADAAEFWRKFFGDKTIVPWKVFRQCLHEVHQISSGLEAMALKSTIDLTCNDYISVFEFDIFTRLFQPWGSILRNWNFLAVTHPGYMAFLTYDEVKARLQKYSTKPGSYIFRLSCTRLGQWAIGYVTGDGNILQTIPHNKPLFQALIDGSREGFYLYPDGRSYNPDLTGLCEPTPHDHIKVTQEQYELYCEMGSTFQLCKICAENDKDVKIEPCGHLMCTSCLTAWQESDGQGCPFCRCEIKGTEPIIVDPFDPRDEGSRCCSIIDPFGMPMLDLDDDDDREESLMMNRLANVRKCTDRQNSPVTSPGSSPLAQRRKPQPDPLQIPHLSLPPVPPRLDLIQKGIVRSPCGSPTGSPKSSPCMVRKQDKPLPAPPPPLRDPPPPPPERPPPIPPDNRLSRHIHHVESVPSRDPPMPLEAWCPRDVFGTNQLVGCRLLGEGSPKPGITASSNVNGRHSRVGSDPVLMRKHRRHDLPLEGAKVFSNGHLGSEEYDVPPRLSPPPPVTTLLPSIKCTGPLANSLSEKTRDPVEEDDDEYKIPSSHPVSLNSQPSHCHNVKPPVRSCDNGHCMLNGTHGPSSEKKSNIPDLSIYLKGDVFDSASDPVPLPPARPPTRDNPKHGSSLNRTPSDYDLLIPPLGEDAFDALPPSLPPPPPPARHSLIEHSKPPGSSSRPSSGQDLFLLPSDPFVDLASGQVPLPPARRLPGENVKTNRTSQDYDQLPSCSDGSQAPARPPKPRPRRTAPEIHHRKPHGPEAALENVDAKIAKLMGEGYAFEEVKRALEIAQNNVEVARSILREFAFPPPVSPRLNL
readoutLabel: DC50

# example entries with known answers
{"compound": "Cn1cnnc1CC1(c2cccc(N3Cc4c(cc(N5CC6(CCN(Cc7ccc8c(c7)C(=O)N(C7CCC(=O)NC7=O)C8=O)CC6)C5)cc4C(F)(F)F)C3=O)c2)COC1 (stereo not drawn)", "target": "Cbl-b (Homo sapiens, UniProt Q13191)", "DC50": "> 0.5 µM"}
{"compound": "Cn1cnnc1C[C@]1(c2cccc(N3Cc4c(cc(CN5CCN(C[C@H]6CC[C@H](OC7CCN(c8cccc9c8n(C(F)F)c(=O)n9C8CCC(=O)NC8=O)CC7)CC6)CC5(C)C)cc4C(F)(F)F)C3=O)c2)C[C@H](C#N)C1 (stereo partly drawn)", "target": "Cbl-b (Homo sapiens, UniProt Q13191)", "DC50": "0.005 to 0.05 µM"}

Let us move to another entry and its DC50.
Q. Which DC50 value belongs to Cn1cnnc1CC1(c2cccc(N3Cc4c(cc(CN5CCC(CN6CC(C7CN(c8ccc9c(c8)C(=O)N(C8CCC(=O)NC8=O)C9=O)C7)C6)CC5)cc4C(F)(F)F)C3=O)c2)COC1 (stereo not drawn) ?
A. > 0.5 µM
